# assaySummary: solvent given as SMILES
# conditionDetails: in O
metric: fluorescence lifetime (ns)
The reply should be a number in ns, with the unit left off.

Enquiry: Please report the measured fluorescence lifetime for CC1(C)C(=O)C=Cc2ccc(N)cc21
Return: 3.49

Enquiry: Please report the measured fluorescence lifetime for O=C(O)COc1ccc2[nH]c3c(c2c1)CCCC3=O
Return: 1.77

Enquiry: Please report the measured fluorescence lifetime for CC(=O)OC[C@@H]1O[C@H](n2cnc3c2N=CN2Cc4c[n+](C)c(C)nc4N=C32)[C@@H](O)[C@H]1O
Return: 3.28

====

For each entry below, report its fluorescence lifetime value.
# assaySummary: solvent given as SMILES
# conditionDetails: in CC#N
The reply should be a number in ns, with the unit left off.

Enquiry: Please report the measured fluorescence lifetime for C(=C\c1ccc(Nc2ccccc2)cc1)/c1ccccc1
Return: 0.39

Enquiry: Please report the measured fluorescence lifetime for COc1cc2c(cc1-c1ccccc1)Cc1c3c(c4c(c1-2)-c1cc(OC)c(-c2ccccc2)cc1C4)C(=O)N(CCC(C)C)C3=O
Return: 6.33

Enquiry: Please report the measured fluorescence lifetime for Fc1nc(F)c(F)c(/C=C2/C(c3c(F)c(F)nc(F)c3F)=Cc3ccccc32)c1F
Return: 0.3

====

# assaySummary: solvent given as SMILES
# conditionDetails: in c1cc(-c2cccc(-n3c4ccccc4c4ccccc43)c2)cc(-n2c3ccccc3c3ccccc32)c1
metric: fluorescence lifetime

Enquiry: Please report the measured fluorescence lifetime for O=C(c1ccc(N2c3ccccc3Oc3ccccc32)cc1)c1cccc(C(=O)c2ccc(N3c4ccccc4Oc4ccccc43)cc2)c1
Return: 24 ns

Enquiry: Please report the measured fluorescence lifetime for N#Cc1nc(-c2ccc(N3c4ccccc4Oc4ccccc43)cc2)c(-c2ccc(N3c4ccccc4Oc4ccccc43)cc2)nc1C#N
Return: 21 ns

Enquiry: Please report the measured fluorescence lifetime for O=c1c2ccccc2n2c3ccc(-c4ccccc4)cc3c(=O)c3cccc1c32
Return: 5.5 ns

Enquiry: Please report the measured fluorescence lifetime for CC1(C)c2ccccc2N(c2ccc3c(c2)c2ccccc2c2nc4ccccc4nc32)c2ccccc21
Return: 68 ns

====

# assaySummary: solvent given as SMILES
# conditionDetails: in C1CCOC1
For each entry below, report its fluorescence lifetime value.

Enquiry: Please report the measured fluorescence lifetime for CCC1(CC)c2ccccc2-c2c1c1c(c3c2C(CC)(CC)c2cc(/C=C/c4cccs4)ccc2-3)C(CC)(CC)c2cc(/C=C/c3cccs3)ccc2-1
Return: 1.5 ns

Enquiry: Please report the measured fluorescence lifetime for COc1cc2c(cc1-c1ccc(Cl)cc1)Cc1c3c(c4c(c1-2)-c1cc(OC)c(-c2ccc(Cl)cc2)cc1C4)C(=O)N(CCC(C)C)C3=O
Return: 3.05 ns

Enquiry: Please report the measured fluorescence lifetime for COC(C)CC1=N/C(=C\c2cccc(N(C)C)c2)C(=O)N1C (stereo not drawn)
Return: 15.3 ns

Enquiry: Please report the measured fluorescence lifetime for COC(=O)C(Cc1ccc2oc(-c3ccc(-n4c5ccccc5c5ccccc54)cc3)nc2c1)NC(=O)OC(C)(C)C (stereo not drawn)
Return: 3.32 ns

Enquiry: Please report the measured fluorescence lifetime for c1ccc(/C(=C(\c2ccccc2)c2cc(-c3ccccc3)ccc2-c2ccc(-c3ccccc3)cc2)c2cc(-c3ccccc3)ccc2-c2ccc(-c3ccccc3)cc2)cc1
Return: 7.9 ns

Enquiry: Please report the measured fluorescence lifetime for NS(=O)(=O)c1ccc(N2N=C(c3ccc(O)cc3)CC2c2ccc([N+](=O)[O-])cc2)cc1 (stereo not drawn)
Return: 2.19 ns

Enquiry: Please report the measured fluorescence lifetime for C(=C\c1nc2ccccc2[nH]1)/c1ccc(/C=C/c2nc3ccccc3[nH]2)cc1
Return: 1.02 ns

Enquiry: Please report the measured fluorescence lifetime for CCC1(CC)c2cc(C#Cc3cccs3)ccc2-c2c1c1c(c3c2C(CC)(CC)c2cc(C#Cc4cccs4)ccc2-3)C(CC)(CC)c2cc(C#Cc3cccs3)ccc2-1
Return: 1.5 ns

Enquiry: Please report the measured fluorescence lifetime for COc1ccc(/C=C/C2=CC(/C=C/c3ccc(OC)cc3)=[O+][B-](OC(C)=O)(OC(C)=O)O2)cc1
Return: 2.38 ns

Enquiry: Please report the measured fluorescence lifetime for CCOC(=O)C1CC(c2c(C#N)c(C)nn2-c2ccccc2)=CN1c1ccc(Br)cc1 (stereo not drawn)
Return: 5.02 ns

Enquiry: Please report the measured fluorescence lifetime for O=C1NC(=O)c2ccc(N3CCOCC3)c3cccc1c23
Return: 8.38 ns

Enquiry: Please report the measured fluorescence lifetime for N#Cc1cccc2[nH]ccc12
Return: 5.3 ns

Enquiry: Please report the measured fluorescence lifetime for C[Si](C)(C)c1ccc(-c2ccc(-c3ccc(-c4ccc(-c5ccc([Si](C)(C)C)s5)s4)c4nsnc34)s2)s1
Return: 5.8 ns
